// provenance: ChEMBL document CHEMBL5725801

Assay Remarks: CaMKII Cell-Based Activity: CaMKII activity in neonatal rat ventricular myocytes (NRVM) was measured by monitoring the phosphorylation level of phospholamban using high-content imaging. NRVMs were plated in a clear bottom 384-well plate in medium supplemented with 10% fetal bovine serum (FBS) and incubated at 37° C., 5% CO2 overnight. The medium was changed to a serum-free medium and compounds were dosed to the cells. The cells were incubated at 37° C., 5% CO2 for 4 hours and were then treated with 100 nM ATX-II (Alomone Labs) to activate CaMKII. 10 minutes after the addition of ATX-II, the cells were fixed with 4% formaldehyde followed by permeabilization with 0.1% triton X100. The fixed cells were stained with an anti-phospho-phospholamban primary antibody (Santa Cruz Biotechnology) and an Alexa488-labeled anti-rabbit IgG secondary antibody (Life Technologies Corporation) as well as Hoechst 33342 (Life Technologies Corporation). The cells were imaged using an ArrayScan VTI (Cellomics) and analyzed for cells containing a positive fluorescent signal at 485 nm, reported as % responder. The % responders were plotted against the compound concentration to determine the compounds EC50.
Assay Endpoint: EC50 (nM)

Solved entries (count: 5):
- Compound: "NC[C@H]1CCCCN1C(=O)c1cc(Cl)nc(-c2cnn3ccc(-c4cccs4)nc23)c1"
  Measure Unit: "nM"
  Observed Result: 23.7
- Compound: "CCN(CC)[C@@H](C)CNC(=O)c1cc(-c2cnn3ccc(-c4cccs4)nc23)nc(N2CC(S(=O)(=O)NC)C2)c1"
  Measure Unit: "nM"
  Observed Result: 50.5
- Compound: "CC(C)C(N)CNC(=O)c1ccnc(-c2cnn3ccc(-c4ccccc4)nc23)c1 (stereo not drawn)"
  Measure Unit: "nM"
  Observed Result: 44.1
- Compound: "CCN[C@@H](C)CNC(=O)c1cc(-c2cnn3ccc(-c4ccccc4)nc23)nc(N2CC(OC)C2)c1"
  Measure Unit: "nM"
  Observed Result: 145
- Compound: "CNc1cnc(-c2cnn3ccc(-c4ccccc4)nc23)cc1C(=O)N1CCCC[C@@H]1CN"
  Measure Unit: "nM"
  Observed Result: 21.8

[1] CCN(CC)[C@@H](C)CNC(=O)c1cc(-c2cnn3ccc(-c4cccs4)nc23)nc(N2CC(C#N)C2)c1
[2] CCN(CC)[C@@H](C)CNC(=O)c1cc(-c2cn[nH]c2)nc(-c2cnn3ccc(-c4cccs4)nc23)c1
[3] CCN(CC)[C@@H](C)CNC(=O)c1cc(-c2cnn3ccc(-c4cccs4)nc23)nc(N2CCn3ccnc3C2)c1
Order each entry by recorded EC50, climbing from the minimum. API: response body holds the labels in the requested order.
1, 2, 3
(1: 9.07 nM, 2: 13.5 nM, 3: 121 nM)
